meta.source: patent US20230365662A1

List of Ratio OD(Variant)/OD(WT) values.
Target: HRgpA-6H (Porphyromonas gingivalis) (UniProt P28784)
Assay: ELISA, FASEBA Fab on coated HRgpA-6H

[
  {
    "Binder": "KB001 mouse Fab VL S28G (Fab, V domains shown) VH: EVQLKQSGPGLVAPSQSLSITCTVSGFSLSIYSVHWVRQPPGKGLEWLGMIWGGGSSDYNSALKSRLSISKDNSKSQVFLKMNSLQTDDTAMYYCARNGNFYAMDYWGQGTSVTVSS VL: QIVLTQSPAIMSASLGERVTMTCTASSGVSSSFLHWYQQKPGSSPQLWIYSTSNLASGVPARFSGSGSGTSYSLTISSMEAEDAATYYCHQYHHSPYIYTFGGGTKLEIK",
    "Ratio OD(Variant)/OD(WT)": 1.09
  },
  {
    "Binder": "KB001 mouse Fab VL F33N (Fab, V domains shown) VH: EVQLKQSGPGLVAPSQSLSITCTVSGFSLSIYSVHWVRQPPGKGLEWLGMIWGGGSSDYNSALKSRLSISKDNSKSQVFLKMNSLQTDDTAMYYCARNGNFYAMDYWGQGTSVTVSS VL: QIVLTQSPAIMSASLGERVTMTCTASSSVSSSNLHWYQQKPGSSPQLWIYSTSNLASGVPARFSGSGSGTSYSLTISSMEAEDAATYYCHQYHHSPYIYTFGGGTKLEIK",
    "Ratio OD(Variant)/OD(WT)": 0.844
  },
  {
    "Binder": "KB001 mouse Fab VL T52S (Fab, V domains shown) VH: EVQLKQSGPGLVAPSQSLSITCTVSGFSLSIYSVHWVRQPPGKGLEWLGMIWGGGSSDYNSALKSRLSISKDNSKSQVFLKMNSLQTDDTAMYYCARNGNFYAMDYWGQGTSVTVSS VL: QIVLTQSPAIMSASLGERVTMTCTASSSVSSSFLHWYQQKPGSSPQLWIYSSSNLASGVPARFSGSGSGTSYSLTISSMEAEDAATYYCHQYHHSPYIYTFGGGTKLEIK",
    "Ratio OD(Variant)/OD(WT)": 1.06
  }
]
